# system.name: STAT6 (Homo sapiens)
# Construct: These cells express endogenous STAT6; host or cells: HeLa LgBiT clone 4.14
# Sequence (P42226 whole entry): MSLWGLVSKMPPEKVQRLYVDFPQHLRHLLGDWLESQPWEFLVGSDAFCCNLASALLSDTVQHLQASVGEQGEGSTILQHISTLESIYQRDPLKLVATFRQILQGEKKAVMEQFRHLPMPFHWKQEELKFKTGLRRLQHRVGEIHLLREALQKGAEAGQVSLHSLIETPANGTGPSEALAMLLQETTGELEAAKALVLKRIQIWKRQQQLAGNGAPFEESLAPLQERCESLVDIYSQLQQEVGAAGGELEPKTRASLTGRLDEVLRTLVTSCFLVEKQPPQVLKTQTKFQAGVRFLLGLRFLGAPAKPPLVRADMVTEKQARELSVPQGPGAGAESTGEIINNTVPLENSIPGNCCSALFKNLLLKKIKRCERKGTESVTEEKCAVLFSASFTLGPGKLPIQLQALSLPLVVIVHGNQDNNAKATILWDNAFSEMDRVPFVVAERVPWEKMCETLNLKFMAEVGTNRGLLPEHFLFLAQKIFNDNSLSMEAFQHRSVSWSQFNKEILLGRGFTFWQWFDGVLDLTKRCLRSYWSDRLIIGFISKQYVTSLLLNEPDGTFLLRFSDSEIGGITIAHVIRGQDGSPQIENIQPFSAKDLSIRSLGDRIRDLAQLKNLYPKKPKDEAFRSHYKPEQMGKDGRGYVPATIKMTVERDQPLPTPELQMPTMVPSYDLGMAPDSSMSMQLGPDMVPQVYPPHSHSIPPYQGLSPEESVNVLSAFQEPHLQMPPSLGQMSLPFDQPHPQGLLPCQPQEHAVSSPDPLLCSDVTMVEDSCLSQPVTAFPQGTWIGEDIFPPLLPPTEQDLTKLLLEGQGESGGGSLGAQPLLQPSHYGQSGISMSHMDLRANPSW
# test.details: Stat6 Degrader Assay (HiBiT based, HeLa LgBiT clone 4.14)
# Format: cell-based
# details: HeLa LgBiT clone 4.14 HiBiT-STAT6, 4-24 h incubation; values given for compounds with >80% Emax; geometric mean; read-out: STAT6 degradation DC50
reported.endpoint: DC50 (nM)

Examples with their reported DC50 follow.
{"columns": ["molecule", "system.name", "measurement"],
 "data": [
  ["CNc1cc(=O)n(-c2ccnc3c2cc([C@H](C)N2CC=C(c4c(C)cc(C(=O)N5CCC(CN6CCN(Cc7ccc8c(c7)C7(CC7)C(=O)N8C7CCC(=O)NC7=O)C[C@@H]6C)CC5)cc4F)CC2)n3C)cc1F (some centres unmarked) [Example 3u164]", "STAT6 (Homo sapiens)", 1],
  ["CNc1cc(=O)n(-c2ccnc3c2cc([C@H](C)N2CC=C(c4c(C)cc(C(=O)N5CCC(CN6CCN(Cc7ccc8c(c7)C(C)(C)C(=O)N8C7CCC(=O)NC7=O)C[C@@H]6C)CC5)cc4F)CC2)n3C)cc1F (some centres unmarked) [Example 3u172]", "STAT6 (Homo sapiens)", 2.9]
]}

a. CNc1ccn(-c2ccnc3c2cc([C@H](C)N2CC=C(c4c(C)cc(C(=O)N5CCC(CN6CCN(Cc7cc8c(cc7F)n([C@@H]7CCC(=O)NC7=O)c(=O)n8C)CC6)CC5)cc4F)CC2)n3C)c(=O)c1 (single isomer, unassigned) [Example 3u12]
b. CNc1ccn(-c2ccnc3c2cc([C@H](C)N2CC=C(c4c(F)cc(C(=O)N5CCC(CN6CCN(Cc7ccc8c(c7)C(C)(C)C(=O)N8[C@@H]7CCC(=O)NC7=O)C[C@@H]6C)CC5)cc4F)CC2)n3C)c(=O)c1 (single isomer, unassigned) [Example 3u203]
c. Cc1cc(C(=O)N2CCC(CN3CCN(Cc4ccc5c(c4)n(C4CC4)c(=O)n5C4CCC(=O)NC4=O)CC3)CC2)cc(F)c1C1=CCN([C@@H](C)c2cc3c(-n4ccc5c(c4=O)CCN5)ccnc3n2C)CC1 (some centres unmarked) [Example 3u140]
**Q:** With regard to DC50, arrange the entries in ascending order, please. Use the labels to give the ranking in the order requested.
**A:** a, c, b
(a: 0.6 nM, c: 1.4 nM, b: 3.4 nM)
